# Species on record: Canis familiaris
# assay text: Pseudo first-order rate constant (K) for disappearance of compound from dog whole blood
# Type: ADME, organism-based, Canis lupus familiaris
property label: K (min⁻¹)
Field format: number, assumed min⁻¹, no unit text.

Problem: What does the record list as K for CN1C=CCC(C(=O)OCCOC(=O)C2N3C(=O)C(NC(=O)Cc4ccccc4)C3SC2(C)C)=C1 (configuration not stated) ?
Solution: 0.168

Problem: Would you mind doing CN1C=c2ccccc2=C(C(=O)NCCOC(=O)C2N3C(=O)C(NC(=O)Cc4ccccc4)C3SC2(C)C)C1 (configuration not stated) as well?
Solution: 0.062

Problem: What do you get for C[n+]1cccc(C(=O)NCCOC(=O)C2N3C(=O)C(NC(=O)Cc4ccccc4)C3SC2(C)C)c1.[I-] (configuration not stated) ?
Solution: 0.048

Problem: Try this compound too: C[n+]1cccc(C(=O)OCCOC(=O)C2N3C(=O)C(NC(=O)Cc4ccccc4)C3SC2(C)C)c1.[I-] (configuration not stated)
Solution: 0.061

Problem: Item: C[n+]1cc(C(=O)NCCOC(=O)C2N3C(=O)C(NC(=O)Cc4ccccc4)C3SC2(C)C)c2ccccc2c1.[I-] (configuration not stated)
Solution: 0.051

Problem: Now give it for CN1C=CCC(C(=O)NCCOC(=O)C2N3C(=O)C(NC(=O)Cc4ccccc4)C3SC2(C)C)=C1 (configuration not stated) too.
Solution: 0.123

Problem: Next compound up: CN1C=CCC(C(=O)OCOC(=O)C2N3C(=O)C(NC(=O)Cc4ccccc4)C3SC2(C)C)=C1 (configuration not stated)
Solution: 0.213
